Origin of the recorded values: patent US12390482B2

target: SARM1 (Homo sapiens, UniProt Q6SZW1); construct: StrepTag (N); assay: SARM1 activation assay by PC6 fluorescence
Sequence (Q6SZW1 28-724, species assumed): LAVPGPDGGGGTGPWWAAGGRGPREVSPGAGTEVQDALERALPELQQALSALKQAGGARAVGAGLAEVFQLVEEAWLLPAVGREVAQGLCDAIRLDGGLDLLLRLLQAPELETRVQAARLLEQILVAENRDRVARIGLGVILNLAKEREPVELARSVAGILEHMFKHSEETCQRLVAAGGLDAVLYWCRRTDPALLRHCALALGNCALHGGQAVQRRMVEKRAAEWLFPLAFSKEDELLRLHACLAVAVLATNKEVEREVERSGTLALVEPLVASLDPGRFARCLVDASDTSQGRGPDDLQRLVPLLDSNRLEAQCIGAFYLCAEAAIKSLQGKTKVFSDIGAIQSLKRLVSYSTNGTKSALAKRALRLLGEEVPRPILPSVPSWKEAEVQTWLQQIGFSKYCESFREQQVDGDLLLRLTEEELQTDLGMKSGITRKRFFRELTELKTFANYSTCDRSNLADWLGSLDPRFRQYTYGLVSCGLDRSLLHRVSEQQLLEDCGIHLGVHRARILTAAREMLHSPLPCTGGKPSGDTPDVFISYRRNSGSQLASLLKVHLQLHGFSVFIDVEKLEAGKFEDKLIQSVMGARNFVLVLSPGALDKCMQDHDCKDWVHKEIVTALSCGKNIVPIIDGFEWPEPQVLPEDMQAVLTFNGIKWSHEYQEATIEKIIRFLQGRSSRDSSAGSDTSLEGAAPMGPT

COMPOUND | ASSAY SYSTEM | EC50
CC(=O)c1ccc[n+]([C@@H]2O[C@H](COP(=O)([O-])O)[C@@H](O)[C@H]2O)c1 [3-APMN, 3-acetylpyridine mononucleotide] | SARM1 (Homo sapiens, UniProt Q6SZW1) | ~44 µM
